Please go through the items and note down their Bas.
Species: Rattus norvegicus
Test: Open TG-GATES - Regimen: Daily Repeat
Format: toxicity, organism-based, Sprague-Dawley
Set-up: regimen Daily Repeat, gender Male, age 6 weeks
Details: in vivo, po, 100 mg/kg, […], tissue Blood, route gavage, dose level Low, time 14 day
Numbers only, in %.

Consider the worked cases shown below.
1) CNC(=C[N+](=O)[O-])NCCSCc1ccc(CN(C)C)o1    0
2) COC(=O)C1=C(C)NC(C)=C(C(=O)OC)C1c1ccccc1[N+](=O)[O-]    0.2
3) O=C(OC[C@H]1O[C@@H](OC(=O)c2cc(O)c(O)c(OC(=O)c3cc(O)c(O)c(O)c3)c2)[C@H](OC(=O)c2cc(O)c(O)c(OC(=O)c3cc(O)c(O)c(O)c3)c2)[C@@H](OC(=O)c2cc(O)c(O)c(OC(=O)c3cc(O)c(O)c(O)c3)c2)[C@@H]1OC(=O)c1cc(O)c(O)c(OC(=O)c2cc(O)c(O)c(O)c2)c1)c1cc(O)c(O)c(OC(=O)c2cc(O)c(O)c(O)c2)c1    0
4) Cc1nnc2n1-c1ccc(Cl)cc1C(c1ccccc1Cl)=NC2    0.8
5) CN/C(=N/CCSCc1nc[nH]c1C)NC#N    0

We now examine a further compound.
Please look up its Bas: "CCOc1ccc(NC(C)=O)cc1"
0.4
